The measurements presented in this section are drawn from patent US20250186614A1.

test: Example 4: dose response of FKBP constructs 160-255, Ec50, Ec90 and fold change (raw and normalized to mCherry); type: cell-based; details: FKBP constructs 160-255; not normalized; read-out: EC90
The following molecules are shown together with reported EC90 values.
A number alone suffices; assume nM.

Molecule | EC90, nM
FKBP-196 (protein, Description of sequence: Construct Name: FKBP-196; Mutation(s): Q72R Q84E A117W V85R DRD I136V) HCPIKSRKGDVLHMHYTGKLEDGTEFDSSLPRNQPFVFSLGTGERIKGWDQGLLGMCEGEKRKLVIPSELGYGERGWPPKIPGGATLVFEVELLKVER | 115
FKBP-205 (protein, Description of sequence: Construct Name: FKBP-205; Mutation(s): Q72R Q84E A117W V85R DRD M54A L104V) HCPIKSRKGDVLHAHYTGKLEDGTEFDSSLPRNQPFVFSLGTGERIKGWDQGLLGMCEGEKRKVVIPSELGYGERGWPPKIPGGATLVFEVELLKIER | 183
FKBP-223: FKBP13 DRD-AcGFP construct of Table 10 (protein, Description of sequence: Construct Name: FKBP-223; Mutation(s): Q72R Q84E A117W V85R DRD M54A P4W T25R) HCWIKSRKGDVLHAHYTGKLEDGREFDSSLPRNQPFVFSLGTGERIKGWDQGLLGMCEGEKRKLVIPSELGYGERGWPPKIPGGATLVFEVELLKIER | 674

(Q) Which value of EC90 has been reported for FKBP-170 (protein, Description of sequence: Construct Name: FKBP-170; Mutation(s): Q72R T82W Q84E A117W DRD M54A V85R) HCPIKSRKGDVLHAHYTGKLEDGTEFDSSLPRNQPFVFSLGWGERIKGWDQGLLGMCEGEKRKLVIPSELGYGERGWPPKIPGGATLVFEVELLKIER in the records?
(A) 133

(Q) Which value of EC90 has been reported for FKBP-167: FKBP13 DRD-AcGFP construct of Table 10 (protein, Description of sequence: Construct Name: FKBP-167; Mutation(s): Q72R S79W Q84R A117W DRD M54A V85R) HCPIKSRKGDVLHAHYTGKLEDGTEFDSSLPRNQPFVFWLGTGRRIKGWDQGLLGMCEGEKRKLVIPSELGYGERGWPPKIPGGATLVFEVELLKIER in the records?
(A) 348
